- TESTED TARGET: T1, human CDH17, full length, expressed on cells (HEK293-hCDH17); AsPC-1, HCT-8, AGS, LoVo, KATO III, HT-29 tumor … (human, UniProt Q12864 23-832)
- T1 construct: also called human CDH17 expressed on tumor cells
- T1 sequence: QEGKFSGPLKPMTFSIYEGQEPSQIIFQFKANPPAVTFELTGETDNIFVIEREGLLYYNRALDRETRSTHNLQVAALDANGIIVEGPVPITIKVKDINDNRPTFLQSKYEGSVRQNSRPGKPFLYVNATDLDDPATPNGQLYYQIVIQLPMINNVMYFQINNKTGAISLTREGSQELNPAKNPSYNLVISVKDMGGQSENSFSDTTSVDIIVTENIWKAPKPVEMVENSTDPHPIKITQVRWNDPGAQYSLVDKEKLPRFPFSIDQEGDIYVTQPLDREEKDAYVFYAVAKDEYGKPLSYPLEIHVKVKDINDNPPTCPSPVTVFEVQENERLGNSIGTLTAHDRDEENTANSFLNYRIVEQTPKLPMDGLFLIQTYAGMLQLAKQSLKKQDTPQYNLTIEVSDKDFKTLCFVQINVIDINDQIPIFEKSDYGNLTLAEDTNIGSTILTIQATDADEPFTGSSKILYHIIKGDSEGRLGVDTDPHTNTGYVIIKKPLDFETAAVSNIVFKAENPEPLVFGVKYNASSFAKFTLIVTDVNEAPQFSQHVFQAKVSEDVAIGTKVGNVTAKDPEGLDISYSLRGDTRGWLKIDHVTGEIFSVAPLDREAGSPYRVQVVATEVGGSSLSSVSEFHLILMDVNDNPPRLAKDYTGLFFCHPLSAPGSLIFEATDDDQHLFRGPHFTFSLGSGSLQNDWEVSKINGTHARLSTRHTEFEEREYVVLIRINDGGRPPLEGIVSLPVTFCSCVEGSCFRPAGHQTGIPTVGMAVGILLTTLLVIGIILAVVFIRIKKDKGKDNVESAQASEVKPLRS
- EXPERIMENTAL DETAILS: flow cytometry, LoVo, HCT-8 and AsPC1 cells
ASSAY READOUT: binding result

Return binding result (reported value) for this binder: 69E3H11-z12a42 (antibody, V domains shown) VH: QVQLVQSGAEVKKPGASVKVSCKASGYTFTTYWMHWVKQAPGQRLEWIGEIDPSDSYANYNQKFKGKATLTVDKSASTAYMELSSLRSEDTAVYYCALYYGYGDWGQGTTVTVSS VL: EIVLTQSPGTLSLSPGERATLSCSVSASISRIHLHWYQQKPGQAPRLLIYRTRNRASGIPDRFSGSGSGTDFTLTISRLEPEDFAVYYCQQGSNLPLTFGQGTRLEIK
binds

Return binding result (reported value) for this binder: 69E3H11-z12a26 (antibody, V domains shown) VH: QVQLVQSGAEVKKPGASVKVSCKASGYTFTTYWMHWVKQAPGQRLEWIGEIDPSDSYANYNQKFKGKATLTVDKSASTAYMELSSLRSEDTAVYYCALYYGYGDWGQGTTVTVSS VL: EIVLTQSPGTLSLSPGERATLSCSVSSSISSIHLHWYQQKPGQAPRLLIYRTRNLASGIPDRFSGSGSGTDFTLTISRLEPEDFAVYYCQQGSNLPLTFGQGTRLEIK
binds

Return binding result (reported value) for this binder: 69E3H11-z12a21 (antibody, V domains shown) VH: QVQLVQSGAEVKKPGASVKVSCKASGYTFTTYWMHWVKQAPGQRLEWIGEIDPSDSYANYNQKFKGKATLTVDKSASTAYMELSSLRSEDTAVYYCALYYGYGDWGQGTTVTVSS VL: EIVLTQSPGTLSLSPGERATLSCSVSASISRIHLHWYQQKPGQAPRLLIYRTSNLASGIPDRFSGSGSGTDFTLTISRLEPEDFAVYYCQQGSNLPLTFGQGTRLEIK
binds
